Origin of the recorded values: patent US20150246947A1

# tested-on: T1, human Protein S (UniProt P07225 42-676)
# T1 chain: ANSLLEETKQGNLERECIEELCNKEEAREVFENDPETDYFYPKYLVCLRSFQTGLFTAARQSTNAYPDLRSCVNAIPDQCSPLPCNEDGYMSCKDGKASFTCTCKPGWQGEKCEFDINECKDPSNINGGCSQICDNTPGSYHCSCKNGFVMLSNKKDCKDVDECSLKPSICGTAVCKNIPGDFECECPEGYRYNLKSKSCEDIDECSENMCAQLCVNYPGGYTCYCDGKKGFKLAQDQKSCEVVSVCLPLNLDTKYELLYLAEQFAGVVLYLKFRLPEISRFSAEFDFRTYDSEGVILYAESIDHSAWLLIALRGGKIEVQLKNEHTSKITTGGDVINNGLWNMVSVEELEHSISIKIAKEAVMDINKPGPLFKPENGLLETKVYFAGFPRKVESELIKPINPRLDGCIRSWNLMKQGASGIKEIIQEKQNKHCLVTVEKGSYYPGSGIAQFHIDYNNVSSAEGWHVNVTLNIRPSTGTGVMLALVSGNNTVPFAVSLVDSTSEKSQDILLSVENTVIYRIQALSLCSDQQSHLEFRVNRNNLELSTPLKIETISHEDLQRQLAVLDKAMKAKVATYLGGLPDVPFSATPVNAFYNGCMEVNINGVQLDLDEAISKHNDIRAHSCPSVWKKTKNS
# assay-remarks: LANCE competition
measured-attribute: pIC50
Give only the number. pIC50 is defined as minus log10 of concentration in molar units.

Worked cases, answers included:
{"columns": ["binder", "pIC50"],
 "data": [
  ["Ac-EYYVSAGWYDYNTDRYYEFY-NH2 [JBS3238]", 8.89],
  ["Ac-TGLVEAGWYDYNFDVYREFT-NH2 [JBS3193]", 8.57],
  ["Ac-EYTVSAGWYDYNKDTYEEFK-NH2 [JBS3220]", 8.46],
  ["Ac-EYYVSAGWYDYEHDTYLEFY-NH2 [JBS3246]", 8.66],
  ["Ac-TGLVSAGWYDYNNDVYREFT-NH2 [JBS3195]", 8.68],
  ["Ac-EYYVSAGWYDYNTDTYYEFD-NH2 [JBS3231]", 8.82],
  ["Ac-TGLVSAGWYDYNFDHYREF-NH2 [JBS3181]", 8.02],
  ["Ac-EYYVSAGWYDYNNDTYNEFW-NH2 [JBS3243]", 8.89]
]}

Req: Look up pIC50 of Ac-SGLVSAGWYDYNFDSYREFT-NH2 [JBS3185] and report it.
Resp: 8.14

Req: Look up pIC50 of Ac-EYYVSAGWHDYNKDIYFEFF-NH2 [JBS3242] and report it.
Resp: 7.17

Req: Look up pIC50 of Ac-QYYVVAGWYDYNTDSYYEFD-NH2 [JBS3251] and report it.
Resp: 9.22

Req: Look up pIC50 of TGCLVSAGWYDYNCDHYREFT [JBS3169] and report it.
Resp: 6.26

Req: Look up pIC50 of CGLVSAGWYDCYNFDHYREFT [JBS3157] and report it.
Resp: 6.09

Req: Look up pIC50 of Ac-EYYVEAGWYEYNTDNYYPFE-NH2 [JBS3236] and report it.
Resp: 8.59
